- Procedure text: MDR1 LLC-PK1 and BCRP MDCKII permeability assay: permeability coefficient (Papp)
- Assay type: in vitro ADME
Structures can show the parent of a compound that is named as a salt.
Readout kind: Papp at 2 h, 1 µM (×10⁻⁶ cm/s)

Cc1c(Nc2c(F)ccc(NS(=O)(=O)N3CC[C@H](F)C3)c2Cl)ccc2ncn(C)c(=O)c12 [Example 86, trifluoroacetate] ... 28
Cc1c(Nc2cc(F)cc(NS(=O)(=O)N3CCCC3)c2Cl)ccc2ncn(C)c(=O)c12 ... 27
Cn1cnc2ccc(Nc3c(F)ccc(NS(=O)(=O)N4CC5CC4C5)c3Cl)c(Cl)c2c1=O [Example 9, trifluoroacetate] ... 29

====

- Target entity: P-gp (MDR1) (Homo sapiens (Human), UniProt P08183)
- Sequence (P08183 whole entry, species assumed): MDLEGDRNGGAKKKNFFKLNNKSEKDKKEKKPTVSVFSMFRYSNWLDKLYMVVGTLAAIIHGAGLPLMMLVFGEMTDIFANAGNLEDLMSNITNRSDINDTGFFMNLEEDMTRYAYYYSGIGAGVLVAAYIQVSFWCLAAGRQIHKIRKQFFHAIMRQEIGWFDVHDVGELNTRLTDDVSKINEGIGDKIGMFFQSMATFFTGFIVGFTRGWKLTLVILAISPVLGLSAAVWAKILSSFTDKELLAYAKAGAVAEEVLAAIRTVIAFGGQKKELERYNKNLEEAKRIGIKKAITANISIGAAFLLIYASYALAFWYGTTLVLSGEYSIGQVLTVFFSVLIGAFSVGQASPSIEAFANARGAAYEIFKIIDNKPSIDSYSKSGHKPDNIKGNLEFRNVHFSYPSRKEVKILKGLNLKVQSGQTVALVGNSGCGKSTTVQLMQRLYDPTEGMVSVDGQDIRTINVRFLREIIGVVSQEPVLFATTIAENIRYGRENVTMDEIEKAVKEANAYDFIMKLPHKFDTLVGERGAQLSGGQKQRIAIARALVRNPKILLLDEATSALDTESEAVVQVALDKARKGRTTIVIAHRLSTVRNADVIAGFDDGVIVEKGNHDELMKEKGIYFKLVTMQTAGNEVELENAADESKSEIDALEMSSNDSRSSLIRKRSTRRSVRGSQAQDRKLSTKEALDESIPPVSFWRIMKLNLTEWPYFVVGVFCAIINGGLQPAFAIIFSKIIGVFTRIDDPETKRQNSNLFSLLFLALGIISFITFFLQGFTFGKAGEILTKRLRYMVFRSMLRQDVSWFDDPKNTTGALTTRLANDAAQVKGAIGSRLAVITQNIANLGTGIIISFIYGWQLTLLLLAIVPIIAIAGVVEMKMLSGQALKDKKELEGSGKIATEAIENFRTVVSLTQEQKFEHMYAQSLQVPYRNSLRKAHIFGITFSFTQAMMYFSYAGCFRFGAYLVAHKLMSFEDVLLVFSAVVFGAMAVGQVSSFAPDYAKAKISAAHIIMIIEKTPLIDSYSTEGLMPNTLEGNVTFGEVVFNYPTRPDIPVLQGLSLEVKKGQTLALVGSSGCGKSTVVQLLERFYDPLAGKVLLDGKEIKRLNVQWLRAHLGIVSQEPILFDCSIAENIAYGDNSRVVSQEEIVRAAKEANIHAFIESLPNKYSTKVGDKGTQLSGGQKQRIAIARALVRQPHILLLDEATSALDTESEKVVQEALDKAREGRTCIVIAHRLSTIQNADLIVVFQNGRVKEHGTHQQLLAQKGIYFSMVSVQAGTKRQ
- Procedure text: MDR1 LLC-PK1 permeability assay: efflux ratio
- Format: in vitro ADME
- Settings: pig
Structures can show the parent of a compound that is named as a salt.
Readout kind: efflux ratio at 2 h, 1 µM

(1) Cc1c(Nc2cc(F)cc(NS(=O)(=O)N3CCCC3)c2F)ccc2ncn(C)c(=O)c12 [Example 154]
(2) COCC1CN(S(=O)(=O)Nc2ccc(F)c(Nc3ccc4ncn(C)c(=O)c4c3F)c2Cl)C1 [Example 133, trifluoroacetate]
(3) Cn1cnc2ccc(Oc3c(F)ccc(NS(=O)(=O)N4CC[C@H](F)C4)c3Cl)c(Cl)c2c1=O [Example 107]
(4) Cc1c(Oc2c(F)ccc(NS(=O)(=O)N3CC[C@@H](OC(F)F)C3)c2Cl)ccc2ncn(C)c(=O)c12.O=C(O)C(F)(F)F [Example 57]
Query: Sort the listed entries by efflux ratio at 2 h, 1 µM, smallest first. Please write the labels in the order that was asked for.
Response: 4, 1, 3, 2

(A) Cc1c(Nc2c(F)ccc(NS(=O)(=O)N(C)C)c2Cl)ccc2ncn(C)c(=O)c12 [Example 71]
(B) COCC1CN(S(=O)(=O)Nc2ccc(F)c(Nc3ccc4ncn(C)c(=O)c4c3Cl)c2Cl)C1 [Example 132, trifluoroacetate]
Query: Thinking about recorded efflux ratio at 2 h, 1 µM values, which is higher, A or B ? Please identify the chosen entry by its label.
Response: B
(B: 2.7, A: 1.2)

====

- Tested on: H1755 cells
- Procedure text: Cellular phospho-ERK inhibition assay in H1755 cells
- Format: cell-based
- Settings: Homo sapiens, NCI-H1755, 2 hours treatment, read-out: H1755 Cell IC50
Structures can show the parent of a compound that is named as a salt.
Readout kind: IC50 (nM)

# annotated cases, reported IC50 shown
Cc1c(Nc2c(F)c(F)cc(NS(=O)(=O)N3CC4CC4C3)c2Cl)ccc2ncn(C)c(=O)c12 (centres unmarked) ... 702
Cc1c(Nc2c(F)ccc(NS(=O)(=O)N3CC4CC4(F)C3)c2Cl)ccc2ncn(C)c(=O)c12 (centres unmarked) ... 337
Cn1cnc2ccc(Nc3c(F)ccc(NS(=O)(=O)N4CC[C@@H](F)C4)c3Cl)c(F)c2c1=O ... 21
Cc1c(Oc2c(F)ccc(NS(=O)(=O)N3CCCC3)c2Cl)ccc2ncn(C)c(=O)c12 ... 88

(A) Cn1cnc2ccc(Nc3c(F)ccc(NS(=O)(=O)N4CC[C@@H](F)C4)c3Cl)c(Br)c2c1=O [Example 24, trifluoroacetate]
(B) CC[C@@H]1CCN(S(=O)(=O)Nc2ccc(F)c(Nc3ccc4ncn(C)c(=O)c4c3Cl)c2Cl)C1 [Example 106, trifluoroacetate]
(C) Cc1c(Oc2c(F)ccc(NS(=O)(=O)N3CC[C@@H](OC(F)F)C3)c2Cl)ccc2ncn(C)c(=O)c12.O=C(O)C(F)(F)F [Example 57, trifluoroacetate]
(D) Cn1cnc2ccc(Oc3c(F)ccc(NS(=O)(=O)N4CC[C@H](F)C4)c3Cl)c(Cl)c2c1=O
Query: // ranking: key=IC50, reverse=True Please write the labels in the order that was asked for.
Response: B, D, C, A

(A) CO[C@@H]1CCN(S(=O)(=O)Nc2ccc(F)c(Oc3ccc4ncn(C)c(=O)c4c3Cl)c2Cl)C1
(B) COC1CN(S(=O)(=O)Nc2ccc(F)c(Oc3ccc4ncn(C)c(=O)c4c3Cl)c2Cl)C1
Query: Thinking about recorded IC50 values, which is higher, A or B ? Please identify the chosen entry by its label.
Response: B

====

- Procedure text: MDR1 LLC-PK1 and BCRP MDCKII permeability assay: permeability coefficient (Papp)
- Format: in vitro ADME
Counter-ions that a name gives are not always drawn.
Readout kind: Papp at 2 h, 1 µM (×10⁻⁶ cm/s)

CO[C@@H]1CCN(S(=O)(=O)Nc2cc(F)cc(Nc3ccc4ncn(C)c(=O)c4c3C)c2Cl)C1 ... 37
Cc1c(Oc2c(F)ccc(NS(=O)(=O)N3CCCC3)c2Cl)ccc2ncn(C)c(=O)c12 ... 25
Cc1c(Nc2c(F)ccc(NS(=O)(=O)N3CC(C)C3)c2Cl)ccc2ncn(C)c(=O)c12 [Example 147, trifluoroacetate] ... 28
Cc1c(Nc2c(F)ccc(NS(=O)(=O)N3CC[C@@H](F)C3)c2F)ccc2ncn(C)c(=O)c12 [Example 114, trifluoroacetate] ... 31
CO[C@@H]1CN(S(=O)(=O)Nc2ccc(F)c(Nc3ccc4ncn(C)c(=O)c4c3F)c2Cl)C[C@@H]1F (relative stereo) ... 26
COCC1CN(S(=O)(=O)Nc2ccc(F)c(Nc3ccc4ncn(C)c(=O)c4c3F)c2Cl)C1 [Example 133, trifluoroacetate] ... 33
CCN(C)S(=O)(=O)Nc1cc(F)c(F)c(Nc2ccc3ncn(C)c(=O)c3c2C)c1Cl ... 30
Cn1cnc2ccc(Nc3c(F)ccc(NS(=O)(=O)N4CC5(CCC5)C4)c3Cl)c(F)c2c1=O [Example 159, trifluoroacetate] ... 33

====

- Target entity: full-length FLAG-tagged B-Raf(V600E) (Homo sapiens (Human), UniProt P15056, V600E)
- Sequence (P15056 whole entry V600E): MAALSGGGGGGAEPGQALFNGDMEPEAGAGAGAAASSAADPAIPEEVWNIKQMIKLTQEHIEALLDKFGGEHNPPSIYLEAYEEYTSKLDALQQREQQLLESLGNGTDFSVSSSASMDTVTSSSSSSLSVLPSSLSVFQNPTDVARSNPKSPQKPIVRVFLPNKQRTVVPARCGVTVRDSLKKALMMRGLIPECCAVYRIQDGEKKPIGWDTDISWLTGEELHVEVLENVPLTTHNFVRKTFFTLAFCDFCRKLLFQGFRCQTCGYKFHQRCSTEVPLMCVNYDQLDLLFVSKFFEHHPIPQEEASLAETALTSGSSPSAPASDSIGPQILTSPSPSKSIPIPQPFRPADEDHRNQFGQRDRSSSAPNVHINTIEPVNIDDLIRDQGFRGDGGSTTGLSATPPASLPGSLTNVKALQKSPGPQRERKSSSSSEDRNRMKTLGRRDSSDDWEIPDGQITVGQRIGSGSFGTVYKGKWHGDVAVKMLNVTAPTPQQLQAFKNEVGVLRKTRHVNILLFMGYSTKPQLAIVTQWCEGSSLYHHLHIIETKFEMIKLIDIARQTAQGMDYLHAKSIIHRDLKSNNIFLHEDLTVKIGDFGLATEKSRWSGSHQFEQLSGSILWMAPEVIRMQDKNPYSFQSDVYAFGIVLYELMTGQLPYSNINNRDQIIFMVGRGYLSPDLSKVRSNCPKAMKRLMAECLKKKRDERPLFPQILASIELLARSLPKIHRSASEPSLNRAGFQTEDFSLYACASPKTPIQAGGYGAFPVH
- Procedure text: BRAF V600E enzyme assay (TR-FRET competitive displacement)
- Assay type: binding
- Settings: averaged IC50; TR-FRET tracer displacement, 60 min
pIC50: −log10 of the molar value. Counter-ions that a name gives are not always drawn.
Readout kind: pIC50

# annotated cases, reported pIC50 shown
CO[C@@H]1CCN(S(=O)(=O)Nc2ccc(F)c(Nc3ccc4ncn(C)c(=O)c4c3Cl)c2Cl)C1 [Example 6] ... 7.89
Cc1c(Nc2c(F)ccc(NS(=O)(=O)N3C[C@@H](F)[C@@H](F)C3)c2Cl)ccc2ncn(C)c(=O)c12 [Example 90] ... 8.05
CO[C@H]1CN(S(=O)(=O)Nc2cc(F)c(F)c(Nc3ccc4ncn(C)c(=O)c4c3C)c2Cl)C[C@H]1F (relative stereo) [Example 100] ... 8.22
Cc1c(Nc2cc(F)cc(NS(=O)(=O)N3CC[C@@H](F)C3)c2Cl)ccc2ncn(C)c(=O)c12 [Example 151] ... 7.85
Cc1c(Nc2c(F)ccc(NS(=O)(=O)N3CC4(CC4)C3)c2Cl)ccc2ncn(C)c(=O)c12 [Example 163, trifluoroacetate] ... 8.10
[2H]C([2H])([2H])O[C@@H]1CCN(S(=O)(=O)Nc2ccc(F)c(Nc3ccc4ncn(C)c(=O)c4c3Cl)c2Cl)C1 [Example 53, trifluoroacetate] ... 8.15

(1) Cc1c(Nc2c(F)ccc(NS(=O)(=O)N3CC4CC4C3)c2Cl)ccc2ncn(C)c(=O)c12 (centres unmarked) [Example 92]
(2) COCC1(C)CN(S(=O)(=O)Nc2ccc(F)c(Nc3ccc4ncn(C)c(=O)c4c3C)c2Cl)C1 [Example 140, trifluoroacetate]
Query: For the pair 1 and 2 , which entry has the numerically smaller recorded pIC50? Please identify the chosen entry by its label.
Response: 2
(2: 7.80, 1: 8.10)

====

- Target entity: P-gp (MDR1) (Homo sapiens (Human), UniProt P08183)
- Procedure text: MDR1 LLC-PK1 permeability assay: efflux ratio
- Format: in vitro ADME
- Settings: pig
Structures can show the parent of a compound that is named as a salt.
Readout kind: efflux ratio at 2 h, 1 µM

CC[C@@H]1CCN(S(=O)(=O)Nc2ccc(F)c(Nc3ccc4ncn(C)c(=O)c4c3Cl)c2Cl)C1 [Example 106, trifluoroacetate] ... 1.2
Cc1c(Nc2cc(F)cc(NS(=O)(=O)N3CCCC3)c2Cl)ccc2ncn(C)c(=O)c12 ... 1.3
Cn1cnc2ccc(Nc3c(F)c(F)cc(NS(=O)(=O)N4CCCC4)c3Cl)c(Cl)c2c1=O [Example 31, trifluoroacetate] ... 1.2

====

- System: H1755 cells
- Procedure text: Cellular phospho-ERK inhibition assay in H1755 cells
- Assay type: cell-based
- Settings: Homo sapiens, NCI-H1755, 2 hours treatment, read-out: H1755 Cell IC50
Structures can show the parent of a compound that is named as a salt.
Readout kind: IC50 (nM)

(I) Cn1cnc2ccc(Oc3c(F)ccc(NS(=O)(=O)N4CC(F)C4)c3Cl)c(Cl)c2c1=O
(II) CO[C@@H]1CN(S(=O)(=O)Nc2ccc(F)c(Nc3ccc4ncn(C)c(=O)c4c3F)c2Cl)C[C@@H]1F (relative stereo)
(III) COCC1CN(S(=O)(=O)Nc2ccc(F)c(Nc3ccc4ncn(C)c(=O)c4c3F)c2Cl)C1 [Example 133, trifluoroacetate]
(IV) Cn1cnc2ccc(Nc3c(F)ccc(NS(=O)(=O)N4C[C@@H](F)[C@@H](F)C4)c3Cl)c(F)c2c1=O
Query: Please rank these molecules by IC50 in descending order. Please write the labels in the order that was asked for.
Response: I, IV, II, III
(I: 69 nM, IV: 33 nM, II: 16 nM, III: 11 nM)
